- TARGET_OR_TEST_SYSTEM: HLA B*07 (Homo sapiens)
- TEST_SUMMARY: T2B7 binding assay (stabilization of HLA B*07 on TAP-deficient T2 cells, FACS)
- MEASUREMENT_PARAMETERS: numerical sum of all the positive assays
Kindly supply the reported Binding number (binding score) values for the records listed here.

NPMILAAGLI [WNB7 007] ... 2
PETPQGLAKI [WNVB7 3403] ... 0
GPGHEEPQLV [WNB7 011] ... 2
RPRWIDARVY [WNB7 017] ... 11
VPCRGQDELV [WNB7 010] ... 4

For every item below, please supply its Binding number (binding score).
1. AVKDELNTLL [WNB7 004]
2. IPAGFEPEML [WNB7 008]
3. SPHRVPNYNL [WNB7 020]
4. PFPESNSPIS [WNVB7 3411]

**A:**
0
10
12
1

For every item below, please supply its Binding number (binding score).
1. RPAADGRTVM [WNB7 023]
2. PEDIDCWCTK [WNVB7 3399]
3. RPQRHDEKTL [WNB7 019]
4. PRTNTILEDN [WNVB7 3415]
5. TPGLRCLNLD [WNB7 024]

**A:**
1. 12
2. 1
3. 11
4. 0
5. 2

----------
- TARGET_OR_TEST_SYSTEM: HLA B*07 (Homo sapiens)
- TEST_SUMMARY: T2B7 binding assay (stabilization of HLA B*07 on TAP-deficient T2 cells, FACS)
- MEASUREMENT_PARAMETERS: fold increase over background, peptide at 200 ug/ml
OUTCOME_MEASURE: Avg. Fold Inc. @ 200
Give bare numbers.

Worked cases, answers included:
KPTGSASSLV [WNB7 015] ... 1.7
PRTNTILEDN [WNVB7 3415] ... 0.9
VPGTKIAGML [WNB7 018] ... 1.7
PFPESNSPIS [WNVB7 3411] ... 1.0
RPRWIDARVY [WNB7 017] ... 1.9
AVKDELNTLL [WNB7 004] ... 1.0
RPQRHDEKTL [WNB7 019] ... 2.8
PETPQGLAKI [WNVB7 3403] ... 1.0

For every item below, please supply its Avg. Fold Inc. @ 200.
1. SPHRVPNYNL [WNB7 020]
2. RPAADGRTVM [WNB7 023]
3. NPMILAAGLI [WNB7 007]
4. GPGHEEPQLV [WNB7 011]
5. TPGLRCLNLD [WNB7 024]
6. PEDIDCWCTK [WNVB7 3399]
7. EPPEGVKYVL [WNB7 013]
8. IPAGFEPEML [WNB7 008]

**A:**
2.5
1.5
1.1
1.0
1.0
1.1
1.1
1.9

For every item below, please supply its Avg. Fold Inc. @ 200.
1. TPAAPSYTLK [WNB7 009]
2. VPCRGQDELV [WNB7 010]
3. APAYSFNCLG [WNB7 005]

**A:**
1: 1.5; 2: 1.0; 3: 1.2
